# assay-name: 7-day repeat-dose oral toxicokinetics
# Assay type: in vivo, CD-1 mouse
# condition-description: male, CD-1, mouse, plasma, po, 1 g/kg, 1.0 g/kg/dose BID, Day 7, M; read-out: AUC0-24
experimental-readout: AUC(0-t) (µg·h/mL)
Numbers only, in µg·h/mL.

The compound identified as OC[C@@H](O)[C@@H](O)[C@@H](O)CO registered its AUC(0-t) at 345

----------
# assay-name: Single oral dose PK
# Assay type: in vivo, CD-1 mouse
# condition-description: CD-1, mouse, plasma; single PO 0.3 g/kg, male
experimental-readout: Cmax

In plain terms, OC[C@@H](O)[C@@H](O)[C@@H](O)CO has a documented Cmax of 45600 ng/mL

----------
# assay-name: Phase 1 SAD/MAD study in healthy subjects
# Format: in vivo, human
# condition-description: human, in vivo, oral, 1.5 g, steady state, 6 days, 1.5 g once daily
experimental-readout: Tmax (min)
Numbers only, in min.

So for OC[C@@H](O)[C@@H](O)[C@@H](O)CO , the logged Tmax turned out to be 30.2

----------
# assay-name: 28-day repeat-dose oral toxicokinetics
# Format: in vivo, Bama minipig
# condition-description: male, Bama, minipig, plasma, po, 0.3 g/kg, 0.3 g/kg/dose BID, Day 1, Male; median (range)
experimental-readout: Tmax

The reported value for OC[C@@H](O)[C@@H](O)[C@@H](O)CO [ribitol, (2R,3s,4S)-Pentane-1,2,3,4,5-pentol] in terms of Tmax is 4.3 h

----------
# assay-name: 28-day repeat-dose oral toxicokinetics
# Format: in vivo, CD-1 mouse
# condition-description: both sexes, CD-1, mouse, plasma, po, 1.5 g/kg, 1.5 g/kg/dose BID, Day 1, Mean of sexes
experimental-readout: Cmax
Please give the number followed by its unit.

Lookup result for OC[C@@H](O)[C@@H](O)[C@@H](O)CO ; measured Cmax: 384 µg/mL

----------
# assay-name: PK comparison QD, BID, TID oral dosing
# Type: in vivo
# condition-description: female, CD-1, mouse, plasma, po, 0.3 g/kg, PO 0.3 g/kg/dose BID, last dose
experimental-readout: Cmax (ng/mL)
Numbers only, in ng/mL.

Briefly, Cmax measured for OC[C@@H](O)[C@@H](O)[C@@H](O)CO : 28300

----------
# assay-name: Single oral dose PK
# Format: in vivo, CD-1 mouse
# condition-description: CD-1, mouse, plasma; single PO 1.0 g/kg, female; read-out: T1/2 (converted)
# Procedure: The PK of ribitol was studied in male and female CD-1 mice following two oral doses at 0.3 and 1.0 g/kg (FIG. 10). Blood samples were collected serially up to 24 hours post dose.
experimental-readout: half-life (h)
Answers are plain numbers, in h.

Item: OC[C@@H](O)[C@@H](O)[C@@H](O)CO | half-life: 1.17

----------
# assay-name: 28-day repeat-dose oral toxicokinetics
# Format: in vivo, CD-1 mouse
# condition-description: male, CD-1, mouse, plasma, po, 1.5 g/kg, 1.5 g/kg/dose BID, Day 28, Male
experimental-readout: Tmax (h)
One number for each entry, in h.

Value of measured Tmax for the entry OC[C@@H](O)[C@@H](O)[C@@H](O)CO : 8.5

----------
# assay-name: Phase 1 SAD/MAD study in healthy subjects
# Format: in vivo, human
# condition-description: human, in vivo, oral, 1.5 g, steady state, 6 days, 1.5 g once daily; read-out: AUC(0-24)
experimental-readout: AUC(0-t) (ng·h/mL)
Give bare numbers, in ng·h/mL.

Noted for OC[C@@H](O)[C@@H](O)[C@@H](O)CO : its AUC(0-t) reads 59800
